TEST_SYSTEM: Adenosine receptor A2b (Homo sapiens)
ASSAY_PROCEDURE: Displacement of [3H]PSB-603 from recombinant human adenosine A2B receptor expressed in CHO cell membranes after 75 mins by liquid scintillation counting method
YES if Ki is below 7 nM. NO if not; exact matches included in NO.

>>> cat("CCCn1c(=O)[nH]c2nc(-c3ccc(OCC(=O)NCCCC4=C5C(C)=CC(C)=[N+]5[B-](F)(F)n5c(C)cc(C)c54)cc3)[nH]c2c1=O")
"NO"
>>> cat("CCCn1c(=O)[nH]c2nc(-c3ccc(OCC(=O)NCCc4ccccc4)cc3)[nH]c2c1=O")
"NO"
>>> cat("CCCn1c(=O)[nH]c2nc(-c3ccc(OCC(=O)NCCCc4ccccc4)cc3)[nH]c2c1=O")
"NO"
>>> cat("CCCn1c(=O)[nH]c2nc(-c3ccc(OCC(=O)NCCCCC4=C5C(C)=CC(C)=[N+]5[B-](F)(F)n5c(C)cc(C)c54)cc3)[nH]c2c1=O")
"NO"
>>> cat("CCCn1c(=O)[nH]c2nc(-c3ccc(OCC(=O)NCCCCCCCCCCC4=C5C(C)=CC(C)=[N+]5[B-](F)(F)n5c(C)cc(C)c54)cc3)[nH]c2c1=O")
"NO"

Field: below-cutoff. Rule: recorded Ki strictly less than 7 nM. Subject: "CCCn1c(=O)[nH]c2nc(-c3ccc(OCC(=O)NCCCCCC4=C5C(C)=CC(C)=[N+]5[B-](F)(F)n5c(C)cc(C)c54)cc3)[nH]c2c1=O" YES

Field: below-cutoff. Rule: recorded Ki strictly less than 7 nM. Subject: "CCCn1c(=O)[nH]c2nc(-c3ccc(OCC(=O)NCCC4=C5C(C)=CC(C)=[N+]5[B-](F)(F)n5c(C)cc(C)c54)cc3)[nH]c2c1=O" YES

Field: below-cutoff. Rule: recorded Ki strictly less than 7 nM. Subject: "CCCn1c(=O)[nH]c2nc(-c3ccc(OCC(=O)NCCCCc4ccccc4)cc3)[nH]c2c1=O" YES

----------
TEST_SYSTEM: Adenosine receptor A1 (Rattus norvegicus, UniProt P25099)
Sequence (P25099 whole entry): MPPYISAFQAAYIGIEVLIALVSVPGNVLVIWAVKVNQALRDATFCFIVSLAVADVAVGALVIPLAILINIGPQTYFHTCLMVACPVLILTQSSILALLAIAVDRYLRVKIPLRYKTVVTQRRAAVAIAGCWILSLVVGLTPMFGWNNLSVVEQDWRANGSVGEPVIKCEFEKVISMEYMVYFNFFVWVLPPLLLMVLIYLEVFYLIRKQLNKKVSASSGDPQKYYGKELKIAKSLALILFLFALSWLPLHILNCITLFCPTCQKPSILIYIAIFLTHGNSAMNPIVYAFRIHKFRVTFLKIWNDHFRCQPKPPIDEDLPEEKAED
ASSAY_PROCEDURE: Displacement of [3H]CCPA from adenosine A1 receptor in rat brain cortical membranes after 90 mins by liquid scintillation counting method
Assay type: cell membranes
Answer each item with its documented pKi.
Give bare numbers, as −log10 of the molar value.

>>> reported_value("CCCn1c(=O)[nH]c2nc(-c3ccc(OCC(=O)NCCCCCC4=C5C(C)=CC(C)=[N+]5[B-](F)(F)n5c(C)cc(C)c54)cc3)[nH]c2c1=O")
7.11
>>> reported_value("CCCn1c(=O)[nH]c2nc(-c3ccc(OCC(=O)NCCCCCCCCCCC4=C5C(C)=CC(C)=[N+]5[B-](F)(F)n5c(C)cc(C)c54)cc3)[nH]c2c1=O")
6.64
>>> reported_value("CCCn1c(=O)[nH]c2nc(-c3ccc(OCC(=O)NCCCC4=C5C(C)=CC(C)=[N+]5[B-](F)(F)n5c(C)cc(C)c54)cc3)[nH]c2c1=O")
6.77

// each listed molecule needs a value for pKi
1. CCCn1c(=O)[nH]c2nc(-c3ccc(OCC(=O)NCCc4ccccc4)cc3)[nH]c2c1=O
2. CCCn1c(=O)[nH]c2nc(-c3ccc(OCC(=O)NCCCCc4ccccc4)cc3)[nH]c2c1=O
3. CCCn1c(=O)[nH]c2nc(-c3ccc(OCC(=O)NCCC4=C5C(C)=CC(C)=[N+]5[B-](F)(F)n5c(C)cc(C)c54)cc3)[nH]c2c1=O
4. CCCn1c(=O)[nH]c2nc(-c3ccc(OCC(=O)NCCCc4ccccc4)cc3)[nH]c2c1=O
5. CCCn1c(=O)[nH]c2nc(-c3ccc(OCC(=O)NCc4ccccc4)cc3)[nH]c2c1=O
6. CCCn1c(=O)[nH]c2nc(-c3ccc(OCC(=O)NCCCCC4=C5C(C)=CC(C)=[N+]5[B-](F)(F)n5c(C)cc(C)c54)cc3)[nH]c2c1=O

8.11
7.53
6.37
7.45
7.57
6.75

----------
TEST_SYSTEM: Adenosine receptor A2a (Rattus norvegicus)
Sequence (P30543 whole entry): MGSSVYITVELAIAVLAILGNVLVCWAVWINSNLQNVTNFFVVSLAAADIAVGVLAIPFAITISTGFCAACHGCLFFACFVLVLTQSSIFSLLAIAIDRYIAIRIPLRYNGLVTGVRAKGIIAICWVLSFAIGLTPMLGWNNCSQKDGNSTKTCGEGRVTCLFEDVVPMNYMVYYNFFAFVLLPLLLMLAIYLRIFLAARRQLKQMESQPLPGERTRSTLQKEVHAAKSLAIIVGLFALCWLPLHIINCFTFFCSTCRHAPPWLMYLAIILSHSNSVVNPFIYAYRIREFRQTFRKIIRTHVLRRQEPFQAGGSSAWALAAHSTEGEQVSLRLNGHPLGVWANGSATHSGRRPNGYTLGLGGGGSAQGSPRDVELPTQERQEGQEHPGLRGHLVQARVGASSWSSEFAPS
ASSAY_PROCEDURE: Displacement of [3H]MSX-2 from adenosine A2A receptor in rat brain striatal membranes after 30 mins by liquid scintillation counting method
Assay type: cell membranes, Striatum, Membrane
EXPERIMENTAL_READOUT: pKi
Numbers only, as −log10 of the molar value.

// solved cases for pKi follow
>>> reported_value("CCCn1c(=O)[nH]c2nc(-c3ccc(OCC(=O)NCCCC4=C5C(C)=CC(C)=[N+]5[B-](F)(F)n5c(C)cc(C)c54)cc3)[nH]c2c1=O")
5.67
>>> reported_value("CCCn1c(=O)[nH]c2nc(-c3ccc(OCC(=O)NCCCCc4ccccc4)cc3)[nH]c2c1=O")
6.30

Next molecule, pKi to be filled in.
Quick one: pKi of "CCCn1c(=O)[nH]c2nc(-c3ccc(OCC(=O)NCCCCCC4=C5C(C)=CC(C)=[N+]5[B-](F)(F)n5c(C)cc(C)c54)cc3)[nH]c2c1=O" ? 6.32

----------
TEST_SYSTEM: Adenosine receptor A1 (Rattus norvegicus)
ASSAY_PROCEDURE: Displacement of [3H]-CHA from adenosine A1 receptor in rat cortical membranes
Assay type: cell membranes
EXPERIMENTAL_READOUT: Ki (nM)
Give bare numbers, in nM.

Quick one: Ki of "CCNC(=O)[C@H]1O[C@@H](n2cnc3c(NCCCCCCNS(=O)(=O)c4cccc5c(N(C)C)cccc45)ncnc32)[C@H](O)[C@@H]1O" ? 27

----------
Answer each item with its documented IC50.
TEST_SYSTEM: Adenosine receptor A2b (Homo sapiens, UniProt P29275)
Sequence (P29275 whole entry): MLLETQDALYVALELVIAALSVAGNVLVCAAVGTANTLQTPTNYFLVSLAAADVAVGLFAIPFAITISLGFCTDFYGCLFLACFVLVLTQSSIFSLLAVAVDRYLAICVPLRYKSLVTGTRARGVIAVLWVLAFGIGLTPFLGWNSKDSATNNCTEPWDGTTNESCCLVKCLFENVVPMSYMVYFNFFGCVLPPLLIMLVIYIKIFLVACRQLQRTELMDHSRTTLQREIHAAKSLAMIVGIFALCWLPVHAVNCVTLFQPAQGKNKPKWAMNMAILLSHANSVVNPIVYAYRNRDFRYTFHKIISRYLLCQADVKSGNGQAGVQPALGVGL
ASSAY_PROCEDURE: Antagonist activity at recombinant human adenosine A2B receptor expressed in CHO cell membranes assessed as inhibition of NECA-induced cAMP accumulation preincubated for 1 hr followed by NECA induction measured after 5 mins in presence of [3H]cAMP and bovine cAMP-binding protein by liquid scintillation counting method
Assay type: functional

>>> reported_value("CCCn1c(=O)[nH]c2nc(-c3ccc(OCC(=O)NCc4ccccc4)cc3)[nH]c2c1=O")
"0.135 µM"
>>> reported_value("CCCn1c(=O)[nH]c2nc(-c3ccc(S(=O)(=O)N4CCN(c5ccc(Cl)cc5)CC4)cc3)[nH]c2c1=O")
"0.0183 µM"
>>> reported_value("CCCn1c(=O)[nH]c2nc(-c3ccc(OCC(=O)NCCCc4ccccc4)cc3)[nH]c2c1=O")
"0.174 µM"

// each listed compound needs a value for IC50
1. CCCn1c(=O)[nH]c2nc(-c3ccc(OCC(=O)NCCc4ccccc4)cc3)[nH]c2c1=O
2. CCCn1c(=O)[nH]c2nc(-c3ccc(OCC(=O)NCCC4=C5C(C)=CC(C)=[N+]5[B-](F)(F)n5c(C)cc(C)c54)cc3)[nH]c2c1=O

1. 0.141 µM
2. 0.262 µM

----------
TEST_SYSTEM: Adenosine receptor A3 (Homo sapiens, UniProt P0DMS8)
Sequence (P0DMS8 whole entry): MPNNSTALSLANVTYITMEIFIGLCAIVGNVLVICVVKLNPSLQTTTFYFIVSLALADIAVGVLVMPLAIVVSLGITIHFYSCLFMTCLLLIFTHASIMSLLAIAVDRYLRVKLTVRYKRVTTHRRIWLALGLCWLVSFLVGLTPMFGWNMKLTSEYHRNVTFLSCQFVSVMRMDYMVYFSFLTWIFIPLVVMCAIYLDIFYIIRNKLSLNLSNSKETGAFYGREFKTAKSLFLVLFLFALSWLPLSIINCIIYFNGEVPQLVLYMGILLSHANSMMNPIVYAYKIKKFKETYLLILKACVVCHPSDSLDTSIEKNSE
ASSAY_PROCEDURE: Displacement of [3H]PSB-11 from recombinant human adenosine A3 receptor expressed in CHO cell membranes after 180 mins by liquid scintillation counting method
pKi: −log10 of the molar value.
EXPERIMENTAL_READOUT: pKi

Quick one: pKi of "CCCn1c(=O)[nH]c2nc(-c3ccc(S(=O)(=O)N4CCN(c5ccc(Cl)cc5)CC4)cc3)[nH]c2c1=O" ? < 5.00

----------
TEST_SYSTEM: Adenosine receptor A2b (Rattus norvegicus, UniProt P29276)
Sequence (P29276 whole entry): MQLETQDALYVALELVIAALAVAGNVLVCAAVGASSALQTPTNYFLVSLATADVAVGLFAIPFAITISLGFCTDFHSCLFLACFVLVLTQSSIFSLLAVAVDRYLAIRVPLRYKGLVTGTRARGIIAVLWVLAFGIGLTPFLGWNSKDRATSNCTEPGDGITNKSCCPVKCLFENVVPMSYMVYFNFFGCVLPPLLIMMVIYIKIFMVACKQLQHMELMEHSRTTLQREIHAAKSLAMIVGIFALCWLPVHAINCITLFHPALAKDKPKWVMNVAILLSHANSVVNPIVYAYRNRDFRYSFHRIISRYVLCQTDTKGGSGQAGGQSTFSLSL
ASSAY_PROCEDURE: Displacement of [3H]PSB-603 from recombinant rat adenosine A2B receptor expressed in CHO cell membranes after 75 mins by liquid scintillation counting method
EXPERIMENTAL_READOUT: pKi
One number for each entry, as −log10 of the molar value.

Quick one: pKi of "CCCn1c(=O)[nH]c2nc(-c3ccc(OCC(=O)NCCC4=C5C(C)=CC(C)=[N+]5[B-](F)(F)n5c(C)cc(C)c54)cc3)[nH]c2c1=O" ? 9.74

----------
TEST_SYSTEM: Adenosine receptor A1 (Homo sapiens)
Sequence (P30542 whole entry): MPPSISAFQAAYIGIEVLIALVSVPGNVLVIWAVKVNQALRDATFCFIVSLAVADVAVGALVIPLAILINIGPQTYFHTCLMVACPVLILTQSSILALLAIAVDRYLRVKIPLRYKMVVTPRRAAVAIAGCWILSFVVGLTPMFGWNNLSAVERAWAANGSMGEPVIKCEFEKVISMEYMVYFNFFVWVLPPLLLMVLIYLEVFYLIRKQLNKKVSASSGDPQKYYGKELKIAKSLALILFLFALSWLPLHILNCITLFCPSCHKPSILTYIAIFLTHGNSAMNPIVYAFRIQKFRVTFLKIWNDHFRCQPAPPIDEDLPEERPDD
ASSAY_PROCEDURE: Displacement of [3H]DPCPX from recombinant human adenosine A1 receptor expressed in CHO cell membranes after 60 mins by scintillation counting method
EXPERIMENTAL_READOUT: pKd
One number for each entry, as −log10 of the molar value.

Query pKd on Adenosine receptor A1 (Homo sapiens) for "CCCn1c(=O)c2[nH]c(-c3ccc(OCC(=O)NCCNC(=O)CCCCCNC(=O)COc4ccc(/C=C/C5=[N+]6C(=Cc7ccc(-c8cccs8)n7[B-]6(F)F)C=C5)cc4)cc3)nc2n(CCC)c1=O" 6.82

----------
ASSAY_PROCEDURE: Selectivity ratio of Ki for adenosine A2A receptor in rat brain striatal membranes to Ki for recombinant human adenosine A2B receptor expressed in CHO cell membranes
Assay type: cell-based
Answer each item with its documented Ratio Ki.

// solved cases for Ratio Ki follow
>>> reported_value("CCCn1c(=O)[nH]c2nc(-c3ccc(OCC(=O)NCCCCc4ccccc4)cc3)[nH]c2c1=O")
"> 150"
>>> reported_value("CCCn1c(=O)[nH]c2nc(-c3ccc(OCC(=O)NCCCc4ccccc4)cc3)[nH]c2c1=O")
"> 150"

// each listed compound needs a value for Ratio Ki
1. CCCn1c(=O)[nH]c2nc(-c3ccc(OCC(=O)NCCCCC4=C5C(C)=CC(C)=[N+]5[B-](F)(F)n5c(C)cc(C)c54)cc3)[nH]c2c1=O
2. CCCn1c(=O)[nH]c2nc(-c3ccc(OCC(=O)NCCc4ccccc4)cc3)[nH]c2c1=O
3. CCCn1c(=O)[nH]c2nc(-c3ccc(OCC(=O)NCCCCCC4=C5C(C)=CC(C)=[N+]5[B-](F)(F)n5c(C)cc(C)c54)cc3)[nH]c2c1=O
4. CCCn1c(=O)[nH]c2nc(-c3ccc(OCC(=O)NCCC4=C5C(C)=CC(C)=[N+]5[B-](F)(F)n5c(C)cc(C)c54)cc3)[nH]c2c1=O
5. CCCn1c(=O)[nH]c2nc(-c3ccc(OCC(=O)NCc4ccccc4)cc3)[nH]c2c1=O
6. CCCn1c(=O)[nH]c2nc(-c3ccc(OCC(=O)NCCCCCCCCCCC4=C5C(C)=CC(C)=[N+]5[B-](F)(F)n5c(C)cc(C)c54)cc3)[nH]c2c1=O
7. CCCn1c(=O)[nH]c2nc(-c3ccc(OCC(=O)NCCCC4=C5C(C)=CC(C)=[N+]5[B-](F)(F)n5c(C)cc(C)c54)cc3)[nH]c2c1=O

1. 64
2. > 150
3. 81
4. > 150
5. > 150
6. > 150
7. > 150
